Target: CDK11 (Homo sapiens, UniProt Q9BWU1)
Sequence (Q9BWU1 whole entry): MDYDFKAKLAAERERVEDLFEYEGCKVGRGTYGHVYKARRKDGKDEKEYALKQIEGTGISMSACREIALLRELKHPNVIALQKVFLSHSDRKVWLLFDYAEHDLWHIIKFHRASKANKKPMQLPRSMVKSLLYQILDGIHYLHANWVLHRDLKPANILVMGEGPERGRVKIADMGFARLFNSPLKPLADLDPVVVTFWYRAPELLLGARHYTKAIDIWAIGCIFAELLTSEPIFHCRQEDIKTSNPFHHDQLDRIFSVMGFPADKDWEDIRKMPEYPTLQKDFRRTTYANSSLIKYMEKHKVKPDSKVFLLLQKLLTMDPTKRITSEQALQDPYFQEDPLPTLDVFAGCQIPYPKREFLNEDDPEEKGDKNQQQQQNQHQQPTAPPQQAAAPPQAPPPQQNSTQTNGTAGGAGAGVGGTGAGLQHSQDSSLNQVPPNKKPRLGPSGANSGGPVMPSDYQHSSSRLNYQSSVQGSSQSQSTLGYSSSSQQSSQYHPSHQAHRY
Test: KINOMEscan binding constant, CDK11
Settings: read-out: Binding affinity (Kd, nM) CDK11
readout type: Kd (nM)
Could you give me the number in nM? Just the number is fine.

In: Quote Kd reported for "Cc1cn(-c2cc(NC(=O)c3ccc4c(c3)CN(c3cncnc3)C[C@@H]4C)cc(C(F)(F)F)c2)cn1" please.
Out: 370

* * *

Kindly supply the reported Kd values for the records listed here.
Biological target: TRKB (Homo sapiens, UniProt Q16620)
Construct: purchased DiscoveRx
Sequence (Q16620 32-822): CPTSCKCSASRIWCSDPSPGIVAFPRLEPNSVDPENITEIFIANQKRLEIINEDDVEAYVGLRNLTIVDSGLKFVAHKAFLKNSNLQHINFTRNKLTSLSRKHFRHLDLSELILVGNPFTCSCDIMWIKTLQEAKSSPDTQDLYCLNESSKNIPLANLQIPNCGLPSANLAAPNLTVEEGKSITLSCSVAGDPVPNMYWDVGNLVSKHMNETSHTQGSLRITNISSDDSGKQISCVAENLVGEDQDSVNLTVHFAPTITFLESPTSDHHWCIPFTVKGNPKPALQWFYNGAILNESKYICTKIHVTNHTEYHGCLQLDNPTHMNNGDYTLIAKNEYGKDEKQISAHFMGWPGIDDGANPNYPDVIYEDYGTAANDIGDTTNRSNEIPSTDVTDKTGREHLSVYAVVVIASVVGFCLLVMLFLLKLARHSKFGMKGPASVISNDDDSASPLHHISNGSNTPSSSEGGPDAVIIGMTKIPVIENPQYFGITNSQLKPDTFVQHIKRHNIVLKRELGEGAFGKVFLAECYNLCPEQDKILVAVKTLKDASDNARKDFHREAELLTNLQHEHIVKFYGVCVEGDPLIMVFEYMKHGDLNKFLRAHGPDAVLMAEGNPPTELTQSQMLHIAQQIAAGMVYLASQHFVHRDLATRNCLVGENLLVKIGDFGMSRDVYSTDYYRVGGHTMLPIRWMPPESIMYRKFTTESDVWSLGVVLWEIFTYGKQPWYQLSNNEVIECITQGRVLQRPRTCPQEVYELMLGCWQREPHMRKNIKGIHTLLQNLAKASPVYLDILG
Assay: KINOMEscan binding constant, TRKB
Details: read-out: Binding affinity (Kd, nM) TRKB
Could you give me the number in nM? Just the number is fine.

In: Quote Kd reported for "C[C@H]1CN(c2cncnc2)Cc2cc(C(=O)Nc3cc(CN4CCN(C)CC4)cc(C(F)(F)F)c3)ccc21" please.
Out: 5.2

In: Quote Kd reported for "CC[C@H]1CN(c2cncnc2)Cc2cc(C(=O)Nc3cc(CN4CCN(C)CC4)cc(C(F)(F)F)c3)ccc21" please.
Out: 22

In: Quote Kd reported for "C[C@@H]1CN(c2cncnc2)Cc2cc(C(=O)Nc3cc(CN4CCN(C)CC4)cc(C(F)(F)F)c3)ccc21" please.
Out: 36

In: Quote Kd reported for "CC(C)[C@H]1CN(c2cncnc2)Cc2cc(C(=O)Nc3cc(CN4CCN(C)CC4)cc(C(F)(F)F)c3)ccc21" please.
Out: 340

In: Quote Kd reported for "CC[C@@H]1CN(c2cncnc2)Cc2cc(C(=O)Nc3cc(CN4CCN(C)CC4)cc(C(F)(F)F)c3)ccc21" please.
Out: 500

In: Quote Kd reported for "CN1CCN(Cc2cc(NC(=O)c3ccc4c(c3)CN(c3cccnc3)CC4)cc(C(F)(F)F)c2)CC1" please.
Out: 94

In: Quote Kd reported for "CN1CCN(Cc2cc(NC(=O)c3ccc4c(c3)CN(c3cncnc3)CC4)cc(C(F)(F)F)c2)CC1" please.
Out: 29
